Method: Drug uptake in human CFSE-stained HN-121 cells assessed as increase in drug retention at 1.6 uM in medium with 10% FBS followed by 48 hrs chase period by inverted fluorescence microscopic analysis
Assay type: ADME, cell-based
Cond: hn-121, 48 h

# Compound, Drug uptake
measured = [
    ("CCCCCCOC(C)c1c(C)c2cc3nc(c(CC(=O)OC)c4[nH]c(cc5nc(cc1[nH]2)C(C)=C5CC)c(C)c4C(=O)NCc1cccc(C#Cc2cccc(Nc4ncnc5cc(OCCOC)c(OCCOC)cc45)c2)c1)[C@@H](CCC(=O)OC)[C@@H]3C (some centres undefined)", "Not Active"),
    ("CCCCCCOC(C)c1c(C)c2cc3nc(c4c5[nH]c(cc6nc(cc1[nH]2)C(C)=C6CC)c(C)c5C(=O)C4)[C@@H](CCC(=O)NC(CCC(=O)NCc1cccc(C#Cc2cccc(Nc4ncnc5cc(OCCOC)c(OCCOC)cc45)c2)c1)(CCC(=O)NCc1cccc(C#Cc2cccc(Nc4ncnc5cc(OCCOC)c(OCCOC)cc45)c2)c1)CCC(=O)NCc1cccc(C#Cc2cccc(Nc4ncnc5cc(OCCOC)c(OCCOC)cc45)c2)c1)[C@@H]3C (some centres undefined)", "Not Active"),
    ("C=Cc1c(C)c2cc3nc(c(CC(=O)OC)c4[nH]c(cc5nc(cc1[nH]2)C(C)=C5CC)c(C)c4C(=O)NCCNC(=O)COCC(=O)NCCCOCCOCCOCCCNC(=O)Cc1cccc(I)c1)[C@@H](CCC(=O)OC)[C@@H]3C", "Not Active"),
]

====

Method: Drug uptake in human FaDu clone 49 cells assessed as increase in drug retention at 1.6 uM in RPMI medium with 10% FBS followed by 48 hrs chase period by inverted fluorescence microscopic analysis
Quantity kind: Drug uptake

Here is how some compounds turned out for Drug uptake.
# Compound, Drug uptake
records = [
    ("CCC1c2cc3[nH]c4c(c5nc(cc6[nH]c(cc(n2)C1C)c(C(C)OCc1cccc(C#Cc2cccc(Nc7ncnc8cc(OCCOC)c(OCCOC)cc78)c2)c1)c6C)[C@@H](C)[C@@H]5CCC(=O)OC)CC(=O)c4c3C (stereo partly drawn)", "Not Active"),
    ("CCC1=C(C)c2cc3[nH]c(cc4nc(c5c6[nH]c(cc1n2)c(C)c6C(=O)C5)[C@@H](CCC(=O)OC)[C@@H]4C)c(C)c3C(C)OCc1cccc(C#Cc2cccc(Nc3ncnc4cc(OCCOC)c(OCCOC)cc34)c2)c1 (stereo partly drawn)", "Active"),
    ("CCCCCCOC(C)c1c(C)c2cc3nc(c(CC(=O)OC)c4[nH]c(cc5nc(cc1[nH]2)C(C)=C5CC)c(C)c4C(=O)NCc1cccc(I)c1)[C@@H](CCC(=O)OC)[C@@H]3C (stereo partly drawn)", "Not Active"),
    ("CCCCCCOC(C)c1c(C)c2cc3nc(c(CC(=O)OC)c4[nH]c(cc5nc(cc1[nH]2)C(C)=C5CC)c(C)c4C(=O)NCCCOCCOCCOCCCNC(=O)Cc1cccc(C#Cc2cccc(Nc4ncnc5cc(OCCOC)c(OCCOC)cc45)c2)c1)[C@@H](CCC(=O)OC)[C@@H]3C (stereo partly drawn)", "Active"),
    ("CCC1=C(C)c2cc3[nH]c(c(C)c3CC)c(-c3ccc(C(=O)NCc4ccc(C#Cc5cccc(Nc6ncnc7cc(OCCOC)c(OCCOC)cc67)c5)cc4)cc3)c3nc(c4c5[nH]c(cc1n2)c(C)c5C(=O)C4)[C@@H](CCC(=O)OC)[C@@H]3C", "Not Active"),
    ("CCC1=C(C)c2cc3[nH]c(cc4nc(c5c6[nH]c(cc1n2)c(C)c6C(=O)C5)[C@@H](CCC(=O)OC)[C@@H]4C)c(C)c3COCc1cccc(C#Cc2cccc(Nc3ncnc4cc(OCCOC)c(OCCOC)cc34)c2)c1", "Not Active"),
]

Field Drug uptake (entry CCC1=C(C)c2cc3[nH]c(cc4nc(c5c6[nH]c(cc1n2)c(C)c6C(=O)C5)[C@@H](CCC(=O)O)[C@@H]4C)c(C)c3C(C)OCc1ccc(C#Cc2cccc(Nc3ncnc4cc(OCCOC)c(OCCOC)cc34)c2)cc1 (stereo partly drawn) ) reads Active

Field Drug uptake (entry `C=Cc1c(C)c2cc3nc(c(CC(=O)OC)c4[nH]c(cc5nc(cc1[nH]2)C(C)=C5CC)c(C)c4C(=O)NCCNC(=O)COCC(=O)NCCCOCCOCCOCCCNC(=O)Cc1cccc(C#Cc2cccc(Nc4ncnc5cc(OCCOC)c(OCCOC)cc45)c2)c1)[C@@H](CCC(=O)OC)[C@@H]3C` ) reads Not Active

Field Drug uptake (entry CCCCCCOC(C)c1c(C)c2cc3nc(c(CC(=O)OC)c4[nH]c(cc5nc(cc1[nH]2)C(C)=C5CC)c(C)c4C(=O)NCc1cccc(C#Cc2cccc(Nc4ncnc5cc(OCCOC)c(OCCOC)cc45)c2)c1)[C@@H](CCC(=O)OC)[C@@H]3C (stereo partly drawn) ) reads Not Active

Field Drug uptake (entry CCC1c2cc3[nH]c4c(c5nc(cc6[nH]c(cc(n2)C1C)c(C(C)OCc1cccc(C#Cc2cccc(Nc7ncnc8cc(OCCOC)c(OCCOC)cc78)c2)c1)c6C)[C@@H](C)[C@@H]5CCC(=O)O)CC(=O)c4c3C (stereo partly drawn) ) reads Not Active

Field Drug uptake (entry CCCCCCOC(C)c1c(C)c2cc3nc(c4c5[nH]c(cc6nc(cc1[nH]2)C(C)=C6CC)c(C)c5C(=O)C4)[C@@H](CCC(=O)NCc1cccc(C#Cc2cccc(Nc4ncnc5cc(OCCOC)c(OCCOC)cc45)c2)c1)[C@@H]3C (stereo partly drawn) ) reads Active

Field Drug uptake (entry CCC1=C(C)c2cc3[nH]c(cc4nc(c5c6[nH]c(cc1n2)c(C)c6C(=O)C5)[C@@H](CCC(=O)OC)[C@@H]4C)c(C)c3C(C)OCc1ccc(C#Cc2cccc(Nc3ncnc4cc(OCCOC)c(OCCOC)cc34)c2)cc1 (stereo partly drawn) ) reads Active

Field Drug uptake (entry `CCC1=C(C)c2cc3[nH]c(c(C)c3CC)c(-c3ccc(C(=O)NCc4ccc(I)cc4)cc3)c3nc(c4c5[nH]c(cc1n2)c(C)c5C(=O)C4)[C@@H](CCC(=O)OC)[C@@H]3C` ) reads Not Active
